measurement description: reduction of Shn3 3'UTR-driven luciferase in osteoblasts – cell-based, Clone20 osteoblasts, firefly luciferase, cherry-picked, dose response (AID 624132);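 also: firefly luciferase luminescence from reporter carrying the Shn3 3'UTR in osteoblasts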
Type: functional
Activity calls are given as the source filed them.
The categories you may choose from are active, inactive

CCn1cc(CN(C)S(=O)(=O)c2ccc3ccccc3c2)c(C)n1: active
COC(=O)/C=C/S(=O)(=O)c1ccc(NC(C)=O)cc1: active
C=C1C(=O)C23CCC4C(C)(C(=O)OC)CCCC4(C)C2CCC1(O)C3 (centres undefined): active

Ask | Write down the call the test reported for this molecule. Item: CC(C)CCC(C(=O)O)C(C)CC(=O)NNC(=O)c1ccco1 (centres undefined)
Reply | inactive

---

experimental system: Corticotropin-releasing factor receptor 2/Corticotropin-releasing factor-binding protein (Homo sapiens, UniProt P24387+Q13324)
Sequence (Q13324 whole entry): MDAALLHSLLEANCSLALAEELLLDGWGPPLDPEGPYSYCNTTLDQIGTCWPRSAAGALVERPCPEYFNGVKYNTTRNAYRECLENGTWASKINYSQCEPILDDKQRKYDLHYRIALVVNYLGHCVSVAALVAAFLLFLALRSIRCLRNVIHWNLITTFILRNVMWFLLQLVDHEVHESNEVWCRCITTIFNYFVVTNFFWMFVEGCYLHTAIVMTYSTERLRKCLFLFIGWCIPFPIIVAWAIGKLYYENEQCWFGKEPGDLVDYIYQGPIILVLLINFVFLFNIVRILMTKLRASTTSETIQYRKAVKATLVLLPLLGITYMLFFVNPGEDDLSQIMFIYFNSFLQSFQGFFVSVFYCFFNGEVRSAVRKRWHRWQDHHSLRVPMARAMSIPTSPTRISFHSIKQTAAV
Sequence (P24387 whole entry): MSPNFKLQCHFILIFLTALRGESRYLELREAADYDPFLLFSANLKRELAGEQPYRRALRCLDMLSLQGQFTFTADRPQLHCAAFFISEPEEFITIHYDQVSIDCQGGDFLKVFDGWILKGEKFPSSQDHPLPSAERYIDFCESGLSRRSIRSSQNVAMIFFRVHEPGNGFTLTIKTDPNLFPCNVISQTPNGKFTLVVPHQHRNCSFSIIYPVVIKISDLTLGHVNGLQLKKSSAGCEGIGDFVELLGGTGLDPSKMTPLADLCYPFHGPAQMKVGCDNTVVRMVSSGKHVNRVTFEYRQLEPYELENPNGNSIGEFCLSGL
measurement description: Dose Response confirmation of uHTS hits for small molecule antagonists of the CRF-binding protein and CRF-R2 receptor complex.
Format: functional
measurement setup: read-out: IC50_Mean
Activity calls are given as the source filed them.
Answer with one of the outcomes given here: active, inactive

Record excerpt, results attached:
O=c1cc(Cc2ccc([N+](=O)[O-])cc2)[nH]c(=O)[nH]1: inactive
Cc1ccc(OCn2c(=O)sc3ccccc32)cc1: inactive
CCOc1ccc(NC(=O)CCCN2C(=O)C(c3ccccc3)Oc3cccnc32)cc1 (centres undefined): inactive
CCCCNC(=O)CCc1nc2cccnc2n1Cc1ccc(OC)cc1: inactive

Ask | // return assay outcome for COc1ccc(/C=C2\SC(=S)N(CC(=O)NCCO)C2=O)cc1
Reply | inactive

Ask | Answer briefly: the call reported for COc1ccc(CNc2oc(COc3ccccc3)nc2C#N)cc1 in this assay.
Reply | inactive

Ask | How did this test come out for CC1CCC(NC(=O)CCN2C(=O)C3CC=CCC3C2=O)CC1 (centres undefined) ?
Reply | inactive

Ask | // outcome(item) with item = C=CCn1c(C)cc(C(=O)CSc2nnc(Cc3ccccc3)o2)c1C
Reply | inactive

Ask | Could you check what this test reported for Cc1ccc(S(=O)(=O)n2nnc3ccccc32)c(C)c1C ?
Reply | inactive

---

Parameter: EC50. Scope: all listed entries.
experimental system: Luciferin 4-monooxygenase (Photinus pyralis)
Sequence (P08659 whole entry): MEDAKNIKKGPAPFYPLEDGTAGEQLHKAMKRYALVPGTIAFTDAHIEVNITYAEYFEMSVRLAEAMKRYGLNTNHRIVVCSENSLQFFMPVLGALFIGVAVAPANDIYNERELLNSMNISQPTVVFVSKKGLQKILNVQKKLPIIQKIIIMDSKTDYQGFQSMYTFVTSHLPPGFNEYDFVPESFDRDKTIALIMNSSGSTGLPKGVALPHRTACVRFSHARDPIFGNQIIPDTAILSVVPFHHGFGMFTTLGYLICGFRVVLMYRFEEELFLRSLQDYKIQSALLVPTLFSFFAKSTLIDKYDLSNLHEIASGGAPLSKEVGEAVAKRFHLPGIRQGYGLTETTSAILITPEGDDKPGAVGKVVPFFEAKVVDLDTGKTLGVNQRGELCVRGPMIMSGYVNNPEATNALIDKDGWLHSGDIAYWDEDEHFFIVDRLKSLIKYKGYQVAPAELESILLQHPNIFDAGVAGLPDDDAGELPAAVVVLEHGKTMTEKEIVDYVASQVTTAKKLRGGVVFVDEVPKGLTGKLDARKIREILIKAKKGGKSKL
measurement description: inhibition of purified Photinus pyralis luciferase – biochemical, luminescence, dose response (AID 1891)

O=C1c2ccccc2C(Nc2ccc(Cl)cn2)N1c1ccccn1 (stereo not drawn): > 112 µM (not active)
CCCNC(=O)COC(=O)/C=C/c1ccco1: > 112 µM (not active)

Ask | I'd like to know its EC50. The compound in question is CC(C)Nc1nc(NC(C)(C)C)nc(Oc2ccc(=O)n(-c3ccccc3)n2)n1
Reply | > 112 µM (not active)

---

experimental system: Coagulation factor XII (Homo sapiens, UniProt P00748);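 also: activated factor XIIa alpha cleaving a fluorogenic AMC peptide substrate; inhibitor potency from loss of enzyme activity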
Format: functional
The source made the active and inactive calls.
Result category, one only: class 1 for active, class 0 for inactive

Examples with answers:
Cc1ccc(S(=O)(=O)ON2C(=O)c3ccccc3C2=O)c(C)c1: class 1
CCOC(=O)c1cccc(NC(=O)CSc2nnc(-c3ccoc3C)n2CCOC)c1: class 0
COC(C[C@H](O)C[C@@H](O)[C@H](C)OCc1ccccc1)OC: class 0
Cc1sc(NC(=O)CSc2nnnn2C2CCCC2)c(C#N)c1C: class 0

Ask | Which outcome was entered for the compound O=C(CCC(=O)N/N=C/c1ccc(Br)s1)NCc1ccccc1 in this test?
Reply | class 0

Ask | Which outcome did this test record for the compound Cc1ccc2oc(NC(=O)N3CCOCC3)cc(=O)c2c1 ?
Reply | class 0

Ask | I'd appreciate the recorded outcome for CCC(CO)n1c(SCc2cc(=O)oc3cc(C)ccc23)nc2ccccc2c1=O (stereo not given) from this test.
Reply | class 0

Ask | Returns: the outcome recorded for Cc1ccc(OCC(=O)Nc2nnn(C)n2)c(C)c1 in this assay.
Reply | class 0

Ask | Please indicate how the test categorized CC(C)N(Cc1ccccc1)C(S)=NC1CCCCC1 .
Reply | class 0

---

measurement description: growth inhibition of yeast DHODH-expressing 3D7 parasites – SYBR Green, dry powder samples, dose response (AID 1159570);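 also: parasite growth measured after 72 hours of compound exposure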
Format: functional, cell-based
Activity calls are given as the source filed them.
experimental readout: AC50

Ask | Suppose we examine the compound COc1ccc2c3c(n(C)c2c1)[C@H](CO)NCC31CCN(CC2CCCC2)CC1 ; what AC50 value has been reported?
Reply | 449 nM (active)

---

experimental system: Cysteine protease ATG4B (Homo sapiens);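 also: Fluorescence-based dose-response confirmation assay measuring inhibition of ATG4B activity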
Sequence (Q9Y4P1 whole entry): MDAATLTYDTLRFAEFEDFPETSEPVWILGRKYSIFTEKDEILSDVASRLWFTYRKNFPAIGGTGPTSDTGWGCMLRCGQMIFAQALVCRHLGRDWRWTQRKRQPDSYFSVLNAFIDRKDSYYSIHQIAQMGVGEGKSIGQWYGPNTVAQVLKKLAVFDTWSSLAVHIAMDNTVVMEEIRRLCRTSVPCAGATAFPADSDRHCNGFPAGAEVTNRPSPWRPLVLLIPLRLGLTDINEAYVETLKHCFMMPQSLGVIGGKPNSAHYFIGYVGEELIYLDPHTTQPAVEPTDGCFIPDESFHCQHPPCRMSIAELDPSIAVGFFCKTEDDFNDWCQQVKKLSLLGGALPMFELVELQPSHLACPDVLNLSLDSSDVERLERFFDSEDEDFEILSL
Format: functional
The source made the active and inactive calls.
Parameter IC50: see the listing below.

Ask | Item under review: Cc1ccc(C(=O)Nc2nc(-c3ccco3)c(-c3ccco3)s2)o1 . Reported IC50?
Reply | 9.23 µM (active)

Ask | // lookup IC50 for COc1ccc(-n2cccc2/C=C2\C(=N)N3N=C(c4ccco4)SC3=NC2=O)cc1
Reply | 2.73 µM (active)

Ask | What value of measured IC50 is listed for O=C1C(SCCO)=C(SCCO)C(=O)c2ccccc21 ?
Reply | 12.8 µM (active)

Ask | Looking for the measured IC50 of Cc1cc(OCc2cc(C(=O)O)oc2C)c2c3c(c(=O)oc2c1)CCCC3 , can you help?
Reply | 17.3 µM (active)

---

experimental system: Nucleotide-binding oligomerization domain-containing protein 2 (Homo sapiens)
Sequence (Q9HC29 whole entry, the tested form may be a part): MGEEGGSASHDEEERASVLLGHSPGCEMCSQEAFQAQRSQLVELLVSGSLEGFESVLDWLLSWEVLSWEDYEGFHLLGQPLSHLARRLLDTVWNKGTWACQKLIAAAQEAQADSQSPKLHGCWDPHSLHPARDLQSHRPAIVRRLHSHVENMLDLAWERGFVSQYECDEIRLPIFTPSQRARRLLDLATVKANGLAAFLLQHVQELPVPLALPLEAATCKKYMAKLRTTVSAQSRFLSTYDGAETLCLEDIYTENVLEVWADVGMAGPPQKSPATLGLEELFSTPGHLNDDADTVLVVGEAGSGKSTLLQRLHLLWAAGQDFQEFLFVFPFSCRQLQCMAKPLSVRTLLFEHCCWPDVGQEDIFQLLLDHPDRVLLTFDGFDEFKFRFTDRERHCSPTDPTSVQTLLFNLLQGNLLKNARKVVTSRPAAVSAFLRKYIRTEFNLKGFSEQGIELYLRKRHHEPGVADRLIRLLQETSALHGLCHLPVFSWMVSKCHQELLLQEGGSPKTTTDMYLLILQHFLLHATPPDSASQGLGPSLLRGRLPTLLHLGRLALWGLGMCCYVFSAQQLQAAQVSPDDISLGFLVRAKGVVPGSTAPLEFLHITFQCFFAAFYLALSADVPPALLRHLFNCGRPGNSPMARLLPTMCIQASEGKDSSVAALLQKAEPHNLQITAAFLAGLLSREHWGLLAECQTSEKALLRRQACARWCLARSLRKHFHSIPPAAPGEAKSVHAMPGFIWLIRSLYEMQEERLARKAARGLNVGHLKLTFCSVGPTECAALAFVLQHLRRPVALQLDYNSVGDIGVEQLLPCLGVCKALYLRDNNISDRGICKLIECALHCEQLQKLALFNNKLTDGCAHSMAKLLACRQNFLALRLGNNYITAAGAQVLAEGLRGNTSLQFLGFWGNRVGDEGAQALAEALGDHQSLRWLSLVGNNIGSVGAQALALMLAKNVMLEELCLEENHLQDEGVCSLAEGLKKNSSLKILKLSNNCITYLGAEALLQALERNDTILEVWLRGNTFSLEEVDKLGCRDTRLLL
measurement description: inhibition of NOD2-driven NF-kB reporter – cell-based, luminescence, uHTS, HEK293 (AID 1566)
Assay type: functional
The source made the active and inactive calls.
Your reply should match one of these outcome classes. class 1 for active, class 0 for inactive

Field: example entries. Status: answers known.
O=C(CCCn1c(=S)[nH]c2cc3c(cc2c1=O)OCO3)N1CCN(c2ccc(Cl)cc2)CC1: class 1
CN(C)C=O.N#Cc1ccc(Cl)cc1NC(=O)CSc1nc(O)c2c(C(F)(F)F)cc(-c3cccs3)nc2n1: class 1
Cc1cccc(-n2ncc3c(N(C)C4CCCCC4)ncnc32)c1: class 0
CCN(C(=O)c1cnc(N2CCN(c3ncccn3)CC2)c2ccccc12)c1cccc(Cl)c1: class 1

Ask | Lab log entry: O=C(C1=C(O)C(=O)N(c2nccs2)C1c1ccccc1)c1ccc2c(c1)OCCO2 (stereo not given) — outcome as called in the assay?
Reply | class 1

---

experimental system: Zinc finger protein mex-5 (Caenorhabditis elegans, UniProt Q9XUB2)
Sequence (Q9XUB2 whole entry): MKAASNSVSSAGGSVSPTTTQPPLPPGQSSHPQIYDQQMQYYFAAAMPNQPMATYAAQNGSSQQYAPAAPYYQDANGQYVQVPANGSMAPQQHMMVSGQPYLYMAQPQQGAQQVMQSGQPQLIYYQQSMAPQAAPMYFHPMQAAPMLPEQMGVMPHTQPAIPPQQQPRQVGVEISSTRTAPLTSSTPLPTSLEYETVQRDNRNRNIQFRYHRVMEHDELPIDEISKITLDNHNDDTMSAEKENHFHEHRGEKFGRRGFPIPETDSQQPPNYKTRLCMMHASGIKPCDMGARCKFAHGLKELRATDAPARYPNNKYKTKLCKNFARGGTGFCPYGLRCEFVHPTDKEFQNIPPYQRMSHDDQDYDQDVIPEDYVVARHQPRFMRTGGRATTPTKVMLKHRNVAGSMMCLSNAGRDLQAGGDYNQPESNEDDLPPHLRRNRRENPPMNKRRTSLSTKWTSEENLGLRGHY
measurement description: potency of MEX-5 RNA-binding blockers – biochemical, C. elegans, fluorescence polarization, dose response (AID 1960)
Activity calls are given as the source filed them.
Entries annotated with measured EC50

Cc1ccc(O)c(-c2cc(C(=O)Nc3ccc(S(=O)(=O)Nc4nccc(C)n4)cc3)[nH]n2)c1: 6.59 µM (active)
CN1C(=O)NC(c2ccccc2[N+](=O)[O-])C2=C1CCCC2=O (stereo unspecified): 7.58 µM (inconclusive)
Oc1[nH]c2ccccc2c1N=Nc1ccc(F)cc1: > 300 µM (inconclusive)
Cc1cc(O)c(C(C)C)cc1N=C1CSC(=O)N1: 34.6 µM (active)
O=C(CNS(=O)(=O)c1ccc([N+](=O)[O-])cc1)N/N=C/c1ccc(O)cc1O: 8.33 µM (active)
Cc1c(NC(=O)CSc2ccc(Cl)cc2)cccc1-c1nc2cc(Cl)ccc2o1: > 300 µM (not active)
O=C(NNC(=O)c1cc(Cl)ccc1O)c1cccc(S(=O)(=O)N2CCOCC2)c1: 11.6 µM (active)
O=C1NC(=O)N(Cc2ccccc2)C(=O)/C1=C/Nc1ccc(CN2CCOCC2)cc1: > 300 µM (not active)
O=C(O)c1ccccc1NS(=O)(=O)c1ccc(NNC(=S)Nc2ccc(OC(F)F)cc2)c([N+](=O)[O-])c1: 5.57 µM (active)
CCN(CC)C(=O)c1cc2c(=O)c3cc(Cl)ccc3oc2nc1C: > 300 µM (not active)

Could you now consider this next compound?
Ask | Give the measured EC50 of CCCOc1cccc(C2C(C(=O)c3ccco3)=C(O)C(=O)N2c2nnc(C)s2)c1 (stereo unspecified) .
Reply | 82.7 µM (active)

---

Documented IC50 across a set of molecules
experimental system: Caspase-3 (Homo sapiens);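 also: Dose-response selectivity test against caspase-3 for candidate inhibitors of sentrin-specific proteases (SENPs)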
Assay type: functional
The source made the active and inactive calls.

Ask | Recorded IC50 of COc1ccc(/C=N/N2CCN(c3ccccc3OC)CC2)cc1Br , please.
Reply | 21.1 µM (active)

Ask | Give its IC50 value. Item: O=C(Nc1ccc(C2CC2(Cl)Cl)cc1)c1cccc([N+](=O)[O-])c1 (stereo unspecified)
Reply | 28.8 µM (active)

Ask | Look up IC50: CCCCCc1ccc(-c2ccc(OC)cc2)nc1
Reply | 37.2 µM (active)

Ask | Suppose we examine the molecule Oc1[nH]c2ccccc2c1N=Nc1ccc(F)cc1 ; what IC50 value has been reported?
Reply | 7.58 µM (active)

Ask | What value of IC50 has been reported for the following molecule? O=C(NCCSc1ccccc1)c1ccc(Br)cc1
Reply | 17.7 µM (active)

Ask | Recorded IC50 of Cc1csc(N/N=C/c2ccc(O)c([N+](=O)[O-])c2)n1 , please.
Reply | 3.15 µM (active)
